FYI, the data here is from paper PMC12136788.

- Measurement Target: T1, UNK ZnF1-3 (human, UniProt Q9C0B0 31-174)
- T1 sequence: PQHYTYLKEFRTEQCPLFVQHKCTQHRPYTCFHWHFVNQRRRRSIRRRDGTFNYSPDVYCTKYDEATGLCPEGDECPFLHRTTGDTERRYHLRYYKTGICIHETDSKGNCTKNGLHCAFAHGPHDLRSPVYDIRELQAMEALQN
- Protocol Summary: nsRBNS (natural sequence RNA bind-n-seq); RBNS binding buffer (assumed for nsRBNS): 25 mM Tris pH 7.5, 150 mM KCl, 3 mM MgCl2, 0.01% Triton X-100, 500 ug/ml BSA, 20 U/ml SUPERase-In, 4 C; UNK is unkempt and MSI1 is Musashi-1; names of the RNAs are library labels; protein concentration not given here; high values mean tight binding
Whole data set: some 24,000 sequences, median “enrichment r” near 0.99, cut for the highest 2% near 3.7. The sample as a whole holds a higher share of the highest values than the screen did.
Give binding signal for every item shown.
Answers are plain numbers, in enrichment R.

Field: example entries. Status: answers known.
[
  {
    "Binder": "chr2:153593888:153593889:+_ENSMUSG00000027479_ENSMUST00000028981|mus_mus|FALSE|FALSE (ssRNA) RNA: GGGAGUUCUACAGUCCGACGAUCCUCAGUAGUGGGUAACACAUUUUGCAGAGUUCGCCAAACAAAGGAAUUGAAUAGGCUAUGGGUAAAGCAAUUGAGGGAGAAUUAAGGAAUGAAGUAUUUUAAAUAUUAAUAUUUCAGUCACAACAGAGGAUUGAGCAUCA",
    "binding signal [enrichment R]": 2.24
  },
  {
    "Binder": "chr4:131761308:131761309:-_ENSMUSG00000040025_ENSMUST00000102570|mus_mus|motif|central (ssRNA) RNA: GGGAGUUCUACAGUCCGACGAUCGCUGACUGUCCAUCAAUCAUGGCUCCACCUAAGGAGCUGGGUGCAUAAGCGUAAUUGCGGCGGUAUCCAGAGCUUUGAGUAGACUGUCCCUGAGAACUGUUAUUUCCCCAUGCUGAGAAGCAACAGAGGAUUGAGCAUCA",
    "binding signal [enrichment R]": 1.17
  },
  {
    "Binder": "99623494_99624154_931_CDS_ENSMUSG00000067567_ENSMUST00000087916|mouse|control|control (ssRNA) RNA: GGGAGUUCUACAGUCCGACGAUCCUGAAUGGGCACAUUGACACUGUAGUACCGUCCUUUCCCCAGGCCAACAUCAGACAUGUCACCUGUUCCUGGGAAAAAUCCUGGGGAGAACUUGUGCAGGGACACAGUCAUAACCUUCGACAACAGAGGAUUGAGCAUCA",
    "binding signal [enrichment R]": 0.68
  },
  {
    "Binder": "chr3:32335226:32335227:+_ENSMUSG00000027665_ENSMUST00000108243|mus_mus|motif|central (ssRNA) RNA: GGGAGUUCUACAGUCCGACGAUCGGCCUCUCUGAACAGUUCAUGUUUGAUGGUGACGAGUGUGGCCUCACGGAGGCAUUCGGAAGUCACUAUCAUUCCAUUGGGGAGUAAACAUUCCACUAGGAUUCGUGGGGGCAUCAAGUGCAACAGAGGAUUGAGCAUCA",
    "binding signal [enrichment R]": 1.05
  },
  {
    "Binder": "93048056_93048176_2666_3pUTR_ENSMUSG00000020964_ENSMUST00000021347|mouse|control|control (ssRNA) RNA: GGGAGUUCUACAGUCCGACGAUCCACUGAGAGUUGUCAUUCCGUAUGGCACUGAAACAAACAUUCACUGCAGCUCUGCCGAGAGCCGCGCAUCCCUGAAAAGGAAGGCAGCAGGUUCUAAGCAGCUUCUGGGAUUCAACACGCCAACAGAGGAUUGAGCAUCA",
    "binding signal [enrichment R]": 0.952
  },
  {
    "Binder": "chr2:153593888:153593889:+_ENSMUSG00000027479_ENSMUST00000028981|mus_hu|FALSE|FALSE (ssRNA) RNA: GGGAGUUCUACAGUCCGACGAUCAGUAGUGGGUGAGACACAUUUUGCAGAAUCCUGCCAAACAAAGGAACUGAAUAGGCUGUGGGCAAAGCAAAUGAGGGAGAGUUAAGGAAUGAAGUAUUUUAAAUAUUAAUAAUUAAUUCACAACAGAGGAUUGAGCAUCA",
    "binding signal [enrichment R]": 4.38
  }
]

Now for a further binder.
Retrieve binding signal measured for chr3:182775190:182775191:-_ENSG00000078070_ENST00000265594|hu_mus|FALSE|FALSE (ssRNA) RNA: GGGAGUUCUACAGUCCGACGAUCCUGCACACUACAGUCUCUUUCAAACAAGUACACUGCGUUGCCAUGGUGAUCACCAAACACCUGGACUUCUACAUGCCUUGGAGUGUCCACGAACUUCUCGAUCAACAUUGCAUCAUCAUUCAACAGAGGAUUGAGCAUCA and print it. 0.969
